meta.source: patent US20050075371A1

assay: Systemic half-life after oral or intravenous administration in rats; assay type: in vivo, rats (Sprague-Dawley); details: rats; oral solution; systemic half-life of the proton pump inhibitor; unit inferred
quantity: Rat T1/2 PPI
The reply must contain the numeric value and, after it, the unit.

Rat T1/2 PPI reading for COc1ccc2c(c1)nc([S+]([O-])Cc1ncc(C)c(OC)c1C)n2S(=O)(=O)c1ccc(OCC(C)(C)C(=O)O)cc1 (centres unmarked) : 1.76 h

Measured Rat T1/2 PPI, COc1ccc2c(c1)nc([S+]([O-])Cc1ncc(C)c(OC)c1C)n2S(=O)(=O)c1c(C)cc(OCC(C)(C)C(=O)O)cc1C (centres unmarked) : 0.708 h

Rat T1/2 PPI in this record for Cc1c(OCC(F)(F)F)ccnc1C[S+]([O-])c1nc2ccccc2n1S(=O)(=O)c1cccc(C(=O)O)c1 (centres unmarked) : 1.93 h

Memo: COc1ccc2c(c1)nc([S+]([O-])Cc1ncc(C)c(OC)c1C)n2S(=O)(=O)c1cc(C(=O)O)ccc1C (centres unmarked) , reported Rat T1/2 PPI: 2.17 h

The compound listed as COc1ccc2c(c1)nc([S+]([O-])Cc1ncc(C)c(OC)c1C)n2S(=O)(=O)c1ccc(CC(=O)O)cc1 (centres unmarked) has a reported Rat T1/2 PPI of 1.7 h

Lab note: measured Rat T1/2 PPI of COc1ccc2c(c1)nc([S+]([O-])Cc1ncc(C)c(OC)c1C)n2S(=O)(=O)c1ccc(OCC(=O)O)c(C(=O)O)c1 (centres unmarked) was 2.72 h

// Rat T1/2 PPI value for Cc1c(OCC(F)(F)F)ccnc1C[S+]([O-])c1nc2ccccc2n1S(=O)(=O)c1ccc(CC(=O)O)cc1 (centres unmarked) : 0.341 h

Looking up Cc1c(OCC(F)(F)F)ccnc1C[S+]([O-])c1nc2ccccc2n1S(=O)(=O)c1ccc(OCC(=O)O)c(OCC(=O)O)c1 (centres unmarked) , I see its Rat T1/2 PPI listed as 1.84 h

Rat T1/2 PPI for Cc1c(OCC(F)(F)F)ccnc1C[S+]([O-])c1nc2ccccc2n1S(=O)(=O)c1ccc(OCC(C)(C)C(=O)O)cc1 (centres unmarked) is 0.933 h

Lookup result for COc1ccc(S(=O)(=O)n2c([S+]([O-])Cc3nccc(OCC(F)(F)F)c3C)nc3ccccc32)cc1C(=O)O (centres unmarked) ; measured Rat T1/2 PPI: 1.8 h

Entry COc1ccnc(C[S+]([O-])c2nc3cc(OC(F)F)ccc3n2S(=O)(=O)c2cc(C(=O)O)ccc2C)c1OC (centres unmarked) — recorded Rat T1/2 PPI = 1.01 h

----------
Collected Dog T1/2 Prodrug values appear next to each entry.
experiment: Systemic half-life after oral or intravenous administration in dogs; type: in vivo, dogs (beagle); details: oral solution, half-life of intact prodrug, NC = plasma concentration of prodrug too low to calculate half-life, or undetected, unit inferred
Express it in min; write the number only.

{"columns": ["molecule", "Dog T1/2 Prodrug [min]"],
 "data": [
  ["COCCCOc1ccnc(C[S+]([O-])c2nc3ccccc3n2S(=O)(=O)c2cccc(C(=O)O)c2)c1C (centres unmarked)", 67.2]
]}

Field Dog T1/2 Prodrug (entry COc1ccc2c(c1)nc([S+]([O-])Cc1ncc(C)c(OC)c1C)n2S(=O)(=O)c1c(C)cc(OCC(C)(C)C(=O)O)cc1C (centres unmarked) ) reads 75.6

Short answer for COCCCOc1ccnc(C[S+]([O-])c2nc3ccccc3n2S(=O)(=O)c2ccc(C(=O)O)cc2)c1C (centres unmarked) : Dog T1/2 Prodrug was 44.8

Dog T1/2 Prodrug for COc1ccc(C(=O)O)cc1S(=O)(=O)n1c([S+]([O-])Cc2nccc(OCC(F)(F)F)c2C)nc2ccccc21 (centres unmarked) is 7.08

Consider COc1ccc2c(c1)nc([S+]([O-])Cc1ncc(C)c(OC)c1C)n2S(=O)(=O)c1cccc(C(=O)O)c1 (centres unmarked) . Its measured Dog T1/2 Prodrug is 18.2

----------
assay: Systemic half-life after oral or intravenous administration in dogs; type: in vivo, dogs (beagle); conditions: oral solution, half-life of intact prodrug, NC = plasma concentration of prodrug too low to calculate half-life, or undetected, unit inferred
Item-by-item account of Dog T1/2 Prodrug
Could you give me the number in min? Just the number is fine.

{"columns": ["compound", "Dog T1/2 Prodrug / min"],
 "data": [
  ["COc1ccc2c(c1)nc([S+]([O-])Cc1ncc(C)c(OC)c1C)n2S(=O)(=O)c1c(C)cc(OCC(=O)O)cc1C (stereo not shown)", 6.78],
  ["Cc1ccc(S(=O)(=O)n2c([S+]([O-])Cc3nccc(OCC(F)(F)F)c3C)nc3ccccc32)cc1CCC(=O)O (stereo not shown)", 110],
  ["COCCCOc1ccnc(C[S+]([O-])c2nc3ccccc3n2S(=O)(=O)c2cc(C(=O)O)ccc2C)c1C (stereo not shown)", 50.6]
]}

Now turn to the next compound.
// field: Dog T1/2 Prodrug; key: Cc1ccc(C(=O)O)cc1S(=O)(=O)n1c([S+]([O-])Cc2nccc(OCC(F)(F)F)c2C)nc2ccccc21 (stereo not shown) ; value = 7.32

----------
experiment: Systemic half-life after oral or intravenous administration in dogs; format: in vivo, dogs (beagle); conditions: oral, Table 2D
Cut-off 1 h on t1/2 (systemic half-life in dogs after oral administration): below means Condition met, at or above means Condition not met.

Worked examples, 5 compounds total:
{"columns": ["compound", "cat"],
 "data": [
  ["COc1ccc2c(c1)nc([S+]([O-])Cc1ncc(C)c(OC)c1C)n2S(=O)(=O)c1c(C)cc(OCC(=O)O)cc1C (stereo not shown)", "Condition not met"],
  ["COc1ccc2c(c1)nc([S+]([O-])Cc1ncc(C)c(OC)c1C)n2S(=O)(=O)c1cccc(C(=O)O)c1 (stereo not shown)", "Condition not met"],
  ["COc1ccc2c(c1)nc([S+]([O-])Cc1ncc(C)c(OC)c1C)n2S(=O)(=O)c1ccc(OCC(=O)O)cc1 (stereo not shown)", "Condition not met"],
  ["Cc1c(OCC(F)(F)F)ccnc1C[S+]([O-])c1nc2ccccc2n1S(=O)(=O)c1cccc(C(=O)O)c1 (stereo not shown)", "Condition met"],
  ["COc1ccc2c(c1)nc([S+]([O-])Cc1ncc(C)c(OC)c1C)n2S(=O)(=O)c1c(C)cc(OCC(C)(C)C(=O)O)cc1C (stereo not shown)", "Condition met"]
]}

Now examine the next entry.
Does COc1ccc(S(=O)(=O)n2c([S+]([O-])Cc3nccc(OCC(F)(F)F)c3C)nc3ccccc32)cc1C(=O)O (stereo not shown) have t1/2 (systemic half-life in dogs after oral administration) strictly under 1 h?
Condition not met

----------
assay: Systemic half-life after oral or intravenous administration in rats; format: in vivo, rats (Sprague-Dawley); details: rats; oral solution; systemic half-life of the proton pump inhibitor; unit inferred
The following compounds are listed with their measured Rat T1/2 PPI values.

{"columns": ["compound", "quantity", "value_measured"],
 "data": [
  ["COc1ccc2c(c1)nc([S+]([O-])Cc1ncc(C)c(OC)c1C)n2S(=O)(=O)c1cccc(C(=O)O)c1 (stereo not drawn)", "Rat T1/2 PPI", "1.93 h"]
]}

Form: compound = Cc1c(OCC(F)(F)F)ccnc1C[S+]([O-])c1nc2ccccc2n1S(=O)(=O)c1ccc(C(=O)O)cc1 (stereo not drawn) ; Rat T1/2 PPI = 0.389 h

Looking up Cc1cc(C(=O)O)ccc1S(=O)(=O)n1c([S+]([O-])Cc2nccc(OCC(F)(F)F)c2C)nc2ccccc21 (stereo not drawn) , I found its Rat T1/2 PPI recorded as 2.19 h
